Molecular target: Mitogen-activated protein kinase kinase kinase kinase 1 (Homo sapiens); further: in the data inactive means no Kd found up to 30 µM
Sequence (Q92918 whole entry): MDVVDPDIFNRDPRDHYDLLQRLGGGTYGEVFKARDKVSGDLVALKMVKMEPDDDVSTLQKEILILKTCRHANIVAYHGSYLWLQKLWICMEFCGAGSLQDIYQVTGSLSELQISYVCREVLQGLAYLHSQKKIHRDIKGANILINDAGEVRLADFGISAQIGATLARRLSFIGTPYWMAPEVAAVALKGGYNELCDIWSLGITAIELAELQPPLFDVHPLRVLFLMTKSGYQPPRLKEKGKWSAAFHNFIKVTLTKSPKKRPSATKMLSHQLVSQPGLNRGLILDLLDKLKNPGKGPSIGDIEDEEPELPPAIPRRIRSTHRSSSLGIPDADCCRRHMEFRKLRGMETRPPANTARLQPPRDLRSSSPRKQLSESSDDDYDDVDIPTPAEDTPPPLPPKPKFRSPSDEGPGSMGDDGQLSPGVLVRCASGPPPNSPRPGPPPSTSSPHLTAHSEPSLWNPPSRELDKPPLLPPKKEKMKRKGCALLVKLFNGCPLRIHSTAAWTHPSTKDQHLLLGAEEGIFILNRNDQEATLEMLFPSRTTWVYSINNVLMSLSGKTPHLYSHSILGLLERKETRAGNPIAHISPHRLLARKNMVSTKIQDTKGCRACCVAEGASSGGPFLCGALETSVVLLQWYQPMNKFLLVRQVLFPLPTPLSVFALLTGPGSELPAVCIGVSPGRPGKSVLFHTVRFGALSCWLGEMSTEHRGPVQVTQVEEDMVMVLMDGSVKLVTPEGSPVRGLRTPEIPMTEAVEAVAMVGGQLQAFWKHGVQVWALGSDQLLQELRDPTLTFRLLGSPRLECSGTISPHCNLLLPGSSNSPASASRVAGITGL
Calls of active or inactive are those of the source.
Outcome codes: Yes for active, No for inactive

> print(dat)
                                    compound  cat
 1  COc1cc(Nc2ncc3c(n2)-c2ccc(Cl)cc2C(c2c(F)cccc2OC)=NC3)ccc1C(=O)O   No
 2  CCn1c(C(=O)N(C2CC2)C2CC2)cc2c3c(ncn3C)c(Nc3cc(C)n(C)n3)nc21   No
 3  CN(C[C@@H]1COCCO1)S(=O)(=O)Nc1ccc2ccc3ncc(-c4cnn(C)c4)cc3c(=O)c2c1   No
 4  CC(C)c1cc(CNc2nc(Nc3cc(C4CC4)[nH]n3)cc(N3CCN(C)CC3)n2)on1  Yes
 5  CCS(=O)(=O)c1cccc(-c2cc(C(=O)NC3CCN(C)CC3)c(C)c3[nH]c4ncc(C)cc4c23)c1   No
 6  Cc1csc(-c2nnc(Nc3ccc(Oc4ncccc4-c4ccnc(N)n4)cc3)c3ccccc23)c1   No
 7  O=C1NC(=O)[C@@H](c2cn3c4c(cccc24)CCC3)[C@@H]1c1c[nH]c2ccccc12 [TIVANTINIB]   No
 8  COc1cc2c(Nc3ccc(Cl)c(Cl)c3F)ncnc2cc1OC[C@@H]1C[C@@H]2CN(C)C[C@@H]2C1   No
 9  C=CC(=O)Nc1cc2c(Nc3ccc(F)c(Cl)c3)ncnc2cc1C#CC(C)(C)N1CCN(C)CC1 [AV-412 FREE BASE]   No
10  CC(=O)NCC(=O)N1[C@@H]2CC[C@H]1c1ccc(Nc3ncc(C(F)(F)F)c(NC4CCC4)n3)cc12   No
